Could you please report measured Population Healthy Nuclei (%) for the items listed next?
# Tested on: Fibroblast
# Assay method text: Multiplex assay against human fibroblast
# Format: toxicity, cell-based
# Condition: 24 h, 1 µM, compound concentration 1 uM, replicate 2
Provide only the numeric value, understood in %.

q: // Population Healthy Nuclei (%) lookup, key: `CC(C)(C)NC[C@H](O)COc1nsnc1N1CCOCC1`
a: 81

q: Given Cc1ccc2c(c1)c1c(n2CCc2ccc(C)nc2)CCN(C)C1 [LATREPIRDINE] , state its recorded Population Healthy Nuclei (%).
a: 67

q: Look at this compound and give its reported Population Healthy Nuclei (%). `O=c1cc(N2CCOCC2)oc2c(-c3cccc4c3sc3ccccc34)cccc12`
a: 82

q: What does the data say about its Population Healthy Nuclei (%)? Entry: `CC(C)NC(=O)N1CC[C@H](NC2=Nc3cc(F)ccc3N(CC(F)F)c3ccc(Cl)cc32)C1`
a: 88

q: Suppose we examine the compound `C=CC(=O)Nc1cccc(Oc2nc(Nc3ccc(N4CCN(C)CC4)cc3OC)ncc2Cl)c1` ; what Population Healthy Nuclei (%) value has been reported?
a: 56

q: Fill in the blank: the reported Population Healthy Nuclei (%) of `Cl.O=C(O)c1cc(-c2ccc(C3CCNCC3)cc2)c2ccc(-c3ccc(C(F)(F)F)cc3)cc2c1` is ____.
a: 79

q: Requested read-out: Population Healthy Nuclei (%). Entry: `Cc1ccc(C)c(Oc2ccncc2C(=O)N2CCN(C3CC3)c3ccccc32)c1`
a: 60

q: Return reported Population Healthy Nuclei (%); argument: `COc1ccccc1CN[C@H]1C2CCN(CC2)[C@H]1C(c1ccccc1)c1ccccc1`
a: 85

q: Query (compound): CC1=C(C(=O)Nc2cc3cn[nH]c3cc2F)C(c2ccc(C(F)(F)F)cc2)CC(=O)N1 (centres undefined) ; field requested: Population Healthy Nuclei (%)
a: 86

q: What does the record list as Population Healthy Nuclei (%) for `Cc1nc(N2CC[C@H](O)C2)ncc1-c1cc(C(F)(F)F)cc2[nH]ncc12` ?
a: 30

q: # query: Population Healthy Nuclei (%) of entry `CCOC(=O)Nc1cc(-c2ccc(C)c(NS(C)(=O)=O)c2)nn2c(C)nnc12`
a: 42

q: Give its Population Healthy Nuclei (%) value. Item: `C=CC(=O)Nc1cccc(Sc2nc(Nc3ccc(N4CCN(C)CC4)cc3)ncc2Cl)c1`
a: 5

q: What value of measured Population Healthy Nuclei (%) is listed for `O=c1[nH]c2ccccc2n1C1CCN(Cc2ccc(-c3[nH]c4cc5ncnc5cc4nc3-c3ccccc3)cc2)CC1` ?
a: 17

q: Report Population Healthy Nuclei (%) for `CC(C)Oc1ccccc1C(=O)Nc1ccccc1C(=O)Nc1cccc(S(=O)(=O)C(F)(F)F)c1` please.
a: 66

q: Fill blank: measured Population Healthy Nuclei (%) of the compound Cc1ccccc1C(c1ccccc1C)N1C2CCC1CC(O)(c1ccccc1)C2 (centres undefined) is ____.
a: 77

q: Can you share its Population Healthy Nuclei (%)? I mean this compound: `CNC(=O)Nc1ccc(-c2nc(N3CC4CCC(C3)O4)c3cnn(C4CCC5(CC4)OCCO5)c3n2)cc1`
a: 64

q: # input compound: Cc1cccc(CN2CCN(C(c3ccccc3)c3ccc(Cl)cc3)CC2)c1.Cl.Cl (centres undefined) ; wanted: its Population Healthy Nuclei (%)
a: 73

q: Fill in the blank: the reported Population Healthy Nuclei (%) of `CC(C)c1noc(N2CCC(COc3ccc(-c4ccc(S(C)(=O)=O)cc4)nc3)CC2)n1` is ____.
a: 83

q: I would be grateful if you could share the reported Population Healthy Nuclei (%) for `CC(C)CC(=O)Nc1[nH]nc2c1CN(C(=O)C1CCN(C)CC1)C2(C)C` .
a: 28

* * *

# Test system: HEK-293T
# Assay method text: Multiplex assay against HEK293T
# Type: toxicity, cell-based
# Condition: human, 12 h, 10 µM, compound concentration 10 uM, replicate 2
Kindly return Criterion met if reported Total Cell Count is no lower than 500; return Criterion not met if it is lower.

q: Total Cell Count >= 500 for `CC(C)OC(=O)N1CCC(Oc2ncnc3c2cnn3-c2ccc(S(C)(=O)=O)cc2F)CC1` ?
a: Criterion not met

q: Decide: Total Cell Count of `Cc1ccc(C)c(Oc2ccncc2C(=O)N2CCN(C3CC3)c3ccccc32)c1` >= 500?
a: Criterion not met

q: Decide: Total Cell Count of `COc1ccc(-c2ccc3ncc4c(c3c2)n(-c2ccc(N3CCNCC3)c(C(F)(F)F)c2)c(=O)n4C)cn1.O=C(O)/C=C\C(=O)O` >= 500?
a: Criterion not met

q: Reported Total Cell Count reaches at least 500 for `CC(C)CC(=O)Nc1[nH]nc2c1CN(C(=O)C1CCN(C)CC1)C2(C)C` ?
a: Criterion met

q: Dear colleague, could you confirm whether `Cc1c[nH]c2nccc(Oc3c(F)cc(Nc4cc(Cl)nc(N)n4)cc3F)c12` has Total Cell Count at or above 500?
a: Criterion not met

* * *

# Test system: HEK-293T
# Assay method text: Multiplex assay against HEK293T
# Type: toxicity, cell-based
# Condition: human, 12 h, 1 µM, compound concentration 1 uM, replicate 1
Give measured Population Mitochondria Different-Phenotype (%) for each item. Keep answers brief.
Give the number; % is assumed, so skip it.

q: # lookup: Population Mitochondria Different-Phenotype (%) of `CCc1ccc(OCc2ccccc2C(=O)Nc2ccc3nc(C)cc(N)c3c2)cc1.Cl`
a: 100

q: Which value of Population Mitochondria Different-Phenotype (%) has been reported for `Cl.O=C(O)c1cc(-c2ccc(C3CCNCC3)cc2)c2ccc(-c3ccc(C(F)(F)F)cc3)cc2c1` in the records?
a: 76

q: Which Population Mitochondria Different-Phenotype (%) value is on record for Cc1ccc2c(c1)c1c(n2CCc2ccc(C)nc2)CCN(C)C1 [LATREPIRDINE] ?
a: 97

q: Please report the recorded Population Mitochondria Different-Phenotype (%) for `COc1cc(Nc2nccc(-c3cnn4nc(OC)ccc34)n2)cc(C(F)(F)F)c1` .
a: 77

q: Would you mind telling me what Population Mitochondria Different-Phenotype (%) value was observed for `CNC(=O)Nc1ccc(-c2nc(N3CC4CCC(C3)O4)c3cnn(C4CCC5(CC4)OCCO5)c3n2)cc1` ?
a: 75

q: So what's the measured Population Mitochondria Different-Phenotype (%) for this one? `CN1CCN(Cc2ccc(Nc3ncc(Cl)c(Nc4ccccc4S(=O)(=O)N(C)C)n3)cc2)CC1`
a: 72

q: Request the reported Population Mitochondria Different-Phenotype (%) associated with O=C(c1cc2c(cc1F)OC(c1ccc(F)cc1)(c1ccc(Cl)cc1Cl)O2)N1CCOCC1 (configuration not stated)
a: 87

q: Fill in: Population Mitochondria Different-Phenotype (%) of COc1cc2ncn(-c3cc(OCc4ccccc4C(F)(F)F)c(C(N)=O)s3)c2cc1OC [GW843682X] is ___
a: 84

q: Look up Population Mitochondria Different-Phenotype (%) for this compound: `C=CC(=O)Nc1ccc2[nH]c(=O)n(C3CCN(Cc4ccc(-c5nc6cc[nH]c(=O)c6cc5-c5ccccc5)cc4)CC3)c2c1`
a: 5

q: Item under review: `CCOC(=O)Nc1cc(-c2ccc(C)c(NS(C)(=O)=O)c2)nn2c(C)nnc12` . Reported Population Mitochondria Different-Phenotype (%)?
a: 3

q: I would be grateful if you could share the reported Population Mitochondria Different-Phenotype (%) for `CCCSc1nc(N[C@@H]2C[C@H]2c2ccc(F)c(F)c2)c2nnn([C@@H]3C[C@H](OCCO)[C@@H](O)[C@H]3O)c2n1` .
a: 89

q: Dear colleague, I am looking for the recorded Population Mitochondria Different-Phenotype (%) of the following compound: `CC(C)c1noc(N2CCC(COc3ccc(-c4ccc(S(C)(=O)=O)cc4)nc3)CC2)n1`
a: 65

q: Look at this compound and give its reported Population Mitochondria Different-Phenotype (%). CCc1nn(CCCN2CCN(c3cccc(Cl)c3)CC2)c(=O)n1CCOc1ccccc1.Cl [NEFAZODONE HYDROCHLORIDE]
a: 88

q: What Population Mitochondria Different-Phenotype (%) value was documented for this compound, Cc1cccc(CN2CCN(C(c3ccccc3)c3ccc(Cl)cc3)CC2)c1.Cl.Cl (configuration not stated) ?
a: 73

q: Item under review: `Cc1nc(N2CC[C@H](O)C2)ncc1-c1cc(C(F)(F)F)cc2[nH]ncc12` . Reported Population Mitochondria Different-Phenotype (%)?
a: 7

q: Quick one: Population Mitochondria Different-Phenotype (%) of `COC(=O)C1=C(C)NC(C)=C(C(=O)OCCCN2CCC(c3ccccc3)(c3ccccc3)CC2)[C@H]1c1cccc([N+](=O)[O-])c1` ?
a: 98

q: Give the measured Population Mitochondria Different-Phenotype (%) of `CC(C)(C)NC[C@H](O)COc1nsnc1N1CCOCC1` .
a: 77

* * *

# Tested on: HEK-293T
# Assay method text: Multiplex assay against HEK293T
# Type: toxicity, cell-based
# Condition: human, 48 h, 10 µM, compound concentration 10 uM, replicate 1
Measure name: Population Apoptotic (%)
State the answer as a number, implicitly in %.

q: Given the entry Cc1ccccc1C(c1ccccc1C)N1C2CCC1CC(O)(c1ccccc1)C2 (stereo not drawn) , report its measured Population Apoptotic (%).
a: 50

q: Looking for the measured Population Apoptotic (%) of `C[C@]12CC[C@@H]3c4ccc(O)cc4CC[C@H]3[C@@H]1CC[C@@H]2O` , can you help?
a: 29

q: Returns the measured Population Apoptotic (%) for the input molecule. Input: `CC(C)Oc1ccccc1C(=O)Nc1ccccc1C(=O)Nc1cccc(S(=O)(=O)C(F)(F)F)c1`
a: 59

q: Could you share which Population Apoptotic (%) value was measured for `COc1cc(Nc2nccc(-c3cnn4nc(OC)ccc34)n2)cc(C(F)(F)F)c1` ?
a: 74

q: Which Population Apoptotic (%) is listed for O=C(c1cc2c(cc1F)OC(c1ccc(F)cc1)(c1ccc(Cl)cc1Cl)O2)N1CCOCC1 (stereo not drawn) ?
a: 53

q: Population Apoptotic (%) lookup needed for CC1=C(C(=O)Nc2cc3cn[nH]c3cc2F)C(c2ccc(C(F)(F)F)cc2)CC(=O)N1 (stereo not drawn) , thanks.
a: 49

q: Form field: reported Population Apoptotic (%) of Cc1cccc(CN2CCN(C(c3ccccc3)c3ccc(Cl)cc3)CC2)c1.Cl.Cl (stereo not drawn)
a: 61

q: Value lookup for Population Apoptotic (%); key = `CN1CCN(Cc2ccc(Nc3ncc(Cl)c(Nc4ccccc4S(=O)(=O)N(C)C)n3)cc2)CC1`
a: 65

q: Please look up its Population Apoptotic (%): `Cl.O=C(O)c1cc(-c2ccc(C3CCNCC3)cc2)c2ccc(-c3ccc(C(F)(F)F)cc3)cc2c1`
a: 60

q: Consider the molecule `CCCSc1nc(N[C@@H]2C[C@H]2c2ccc(F)c(F)c2)c2nnn([C@@H]3C[C@H](OCCO)[C@@H](O)[C@H]3O)c2n1` and give its measured Population Apoptotic (%).
a: 81

q: Look up Population Apoptotic (%) for this molecule: `O=c1cc(N2CCOCC2)oc2c(-c3cccc4c3sc3ccccc34)cccc12`
a: 68

q: Reported Population Apoptotic (%) for `COc1ccc(-c2ccc3ncc4c(c3c2)n(-c2ccc(N3CCNCC3)c(C(F)(F)F)c2)c(=O)n4C)cn1.O=C(O)/C=C\C(=O)O` : what is it?
a: 85

q: Query (molecule): `CC(C)c1noc(N2CCC(COc3ccc(-c4ccc(S(C)(=O)=O)cc4)nc3)CC2)n1` ; field requested: Population Apoptotic (%)
a: 63

q: Could you tell me which Population Apoptotic (%) is on file for `CC(C)(C)NC[C@H](O)COc1nsnc1N1CCOCC1` ?
a: 42

q: Could you tell me which Population Apoptotic (%) is on file for COc1cc2ncn(-c3cc(OCc4ccccc4C(F)(F)F)c(C(N)=O)s3)c2cc1OC [GW843682X] ?
a: 72

q: Which value of Population Apoptotic (%) has been reported for `CCOC(=O)Nc1cc(-c2ccc(C)c(NS(C)(=O)=O)c2)nn2c(C)nnc12` in the records?
a: 38

q: Item under review: `Cc1c[nH]c2nccc(Oc3c(F)cc(Nc4cc(Cl)nc(N)n4)cc3F)c12` . Reported Population Apoptotic (%)?
a: 60

q: GET /values?readout=Population Apoptotic (%)&item= `CNC(=O)Nc1ccc(-c2nc(N3CC4CCC(C3)O4)c3cnn(C4CCC5(CC4)OCCO5)c3n2)cc1`
a: 84

Data origin, for the record: ChEMBL document CHEMBL4689842
